Procedure details: qHTS for Inhibitors of Plasmodium falciparum (HB3) proliferation (AID 504318); note: nearly all actives have a fitted effect of over 60% in size
Run parameters: P. falciparum HB3 in erythrocytes, SYBR Green DNA, 72 h; series mostly up to 7.21 µM
Records with an inconclusive call do not appear. Activity calls are given as the source filed them. Calls come from the whole dose curve; as a rule, active = well fitted inhibition curve with a large enough effect; inconclusive = small, poorly fitted or top-dose-only effect; inactive = flat fitted curve, though single readings scatter.
Thanks in advance; please answer with one of these: t (active), f (inactive)

*Q* What was the test verdict on CCOC(=O)CN1C(=O)NC(CCc2ccccc2)C(C(C)=O)=C1C (stereo not given) ?
*A* f

*Q* What was the test verdict on "CC(C)[C@@H](OCc1ccccc1)[C@H](C)C=NOC[C@@H](C)[C@H](OCc1ccccc1)C(C)C" ?
*A* f

*Q* What was the test verdict on "COc1ccc2c3c(c(=O)oc2c1)[C@H]1O[C@](CCCCN2C(=O)c4ccccc4C2=O)(Cc2cc(OC)c(OC)cc21)O3" ?
*A* t

*Q* What was the test verdict on COC(=O)C1=C2C=C(C)CC(C)N2C(=O)NC1c1ccccc1 (stereo not given) ?
*A* f

*Q* What was the test verdict on "C=CC[C@@](C(C)=O)(C(=O)OC)[C@@H](NC(=O)OC)c1ccccc1" ?
*A* f
